Origin of the recorded values: patent US20190359687A1

# TARGET_DESC: T1, human glycophorin A on human red blood cells or red blood cell membranes (human, UniProt P02724 20-150)
# T1 construct: whole, on cells; also called hRBC; human RBC membranes
# T1 sequence (looked up): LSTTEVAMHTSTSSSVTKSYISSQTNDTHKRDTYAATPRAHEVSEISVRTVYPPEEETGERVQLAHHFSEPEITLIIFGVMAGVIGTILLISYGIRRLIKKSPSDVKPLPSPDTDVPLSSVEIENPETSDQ
# PROTOCOL_DETAILS: SPR (Biacore), Fab over human RBC membranes, 1:1 fit;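 further: human RBC membrane preparations captured on an L1 sensor surface, with antibody passed over them as analyte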
PARAMETER_MEASURED: kon (M⁻¹ s⁻¹)

TPP-5702, Hu6C12-24 Fab variant VL: (S24R, A26S, S49A, P54Q, F95Y) (Fab, V domains shown, Built on the parental Fab TPP-4935) VH: EVQLVQSGAEVKKPGASVKVSCKASGYTFTTYTIHWVRQAPGQGLEWIGYINPSSDYTRYNPKFKDRVTLTTDKSTSTAYMELRSLRSDDTAVYYCQTGTRDYWGQGTTVTVSS VL: DIQLTQSPSFLSASVGDRVTITCRASSSVSYIYWFQQKPGKAPKLLIYATSTLQSGVPSRFSGSGSGTEYTLTISSLQPEDFATYYCHQRNSFPYTFGQGTKLEIKR : 650000
TPP-5678, Hu6C12-24 Fab variant VH: (I48M, D66G, L70M, T72R) (Fab, V domains shown, Built on the parental Fab TPP-4935) VH: EVQLVQSGAEVKKPGASVKVSCKASGYTFTTYTIHWVRQAPGQGLEWMGYINPSSDYTRYNPKFKGRVTMTRDKSTSTAYMELRSLRSDDTAVYYCQTGTRDYWGQGTTVTVSS VL: DIQLTQSPSFLSASVGDRVTITCSAASSVSYIYWFQQKPGKAPKLLIYSTSTLPSGVPSRFSGSGSGTEYTLTISSLQPEDFATYYCHQRNSFPFTFGQGTKLEIKR : 1.1e+06
TPP-5842, Hu6C12-24 Fab variant VL: (S24R, A26S, S49A, P54Q, F95Y); VH: (D66G, L70M, T72R) (Fab, V domains shown, Built on the parental Fab TPP-4935) VH: EVQLVQSGAEVKKPGASVKVSCKASGYTFTTYTIHWVRQAPGQGLEWIGYINPSSDYTRYNPKFKGRVTMTRDKSTSTAYMELRSLRSDDTAVYYCQTGTRDYWGQGTTVTVSS VL: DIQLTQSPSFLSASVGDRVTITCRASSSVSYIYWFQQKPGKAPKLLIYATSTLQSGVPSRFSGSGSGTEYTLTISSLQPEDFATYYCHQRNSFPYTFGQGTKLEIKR : 1.5e+06
